%Inh values for the molecules below.
System: CAMK2G;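 note: KINOMEscan kinase panel screen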
MEASUREMENT SETUP: concentration: 1 μM, replicates: in singlicate; n = 1
MEASURED ATTRIBUTE: %Inh (%)

>  <MOLECULE>
CCn1c(-c2nonc2N)nc2c(C#CC(C)(C)O)ncc(OCCCCN)c21.O=C(O)C(F)(F)F.O=C(O)C(F)(F)F

>  <MEASURED ATTRIBUTE>
%Inh

>  <UOM>
%

>  <ASSAY VALUE>
19

$$$$
>  <MOLECULE>
CN(c1ccc(NC(=O)Nc2cc(C(F)(F)F)ccc2F)cc1)c1ccnc(Nc2ccc(S(N)(=O)=O)cc2)n1

>  <MEASURED ATTRIBUTE>
%Inh

>  <UOM>
%

>  <ASSAY VALUE>
9

$$$$
>  <MOLECULE>
COc1cc(Nc2nccc(N3CCC(NC(=O)Nc4cccc(C(C)=O)c4)C3)n2)cc(OC)c1OC (stereo not drawn)

>  <MEASURED ATTRIBUTE>
%Inh

>  <UOM>
%

>  <ASSAY VALUE>
0

$$$$
>  <MOLECULE>
Cl.Cl.NCC(C(=O)Nc1cc(Br)c(-c2ccnc3[nH]ccc23)s1)c1ccccc1 (stereo not drawn)

>  <MEASURED ATTRIBUTE>
%Inh

>  <UOM>
%

>  <ASSAY VALUE>
12

$$$$
>  <MOLECULE>
COC(=O)Nc1nc2ccc(Oc3ccc(NC(=O)Nc4cc(C(F)(F)F)ccc4F)cc3)cc2n1C.Cl

>  <MEASURED ATTRIBUTE>
%Inh

>  <UOM>
%

>  <ASSAY VALUE>
3

$$$$
>  <MOLECULE>
CCc1ccc(-c2ccc3c(c2)-c2c(cnn2C)S(=O)(=O)N3C)cc1

>  <MEASURED ATTRIBUTE>
%Inh

>  <UOM>
%

>  <ASSAY VALUE>
13

$$$$
>  <MOLECULE>
O=C(O)C(F)(F)F.O=C(O)C(F)(F)F.O=c1[nH]ccc2nc(N[C@@H]3CCCNC3)nc(Nc3ccc(S(=O)(=O)N4CCOCC4)cc3)c12

>  <MEASURED ATTRIBUTE>
%Inh

>  <UOM>
%

>  <ASSAY VALUE>
54

$$$$
>  <MOLECULE>
NCCCC(NC(=O)c1cc(Br)c(-c2ccnc3[nH]ccc23)s1)c1ccccc1.O=C(O)C(F)(F)F.O=C(O)C(F)(F)F (stereo not drawn)

>  <MEASURED ATTRIBUTE>
%Inh

>  <UOM>
%

>  <ASSAY VALUE>
10

$$$$
>  <MOLECULE>
CN(C)S(=O)(=O)c1cc(-c2ccc3nccc(-c4cccc(S(N)(=O)=O)c4)c3c2)cnc1N

>  <MEASURED ATTRIBUTE>
%Inh

>  <UOM>
%

>  <ASSAY VALUE>
8

$$$$
>  <MOLECULE>
C[C@@H](Oc1cc(-n2cnc3cc(-c4ccnc(NCCS(C)(=O)=O)c4)ccc32)sc1C(N)=O)c1ccccc1Cl

>  <MEASURED ATTRIBUTE>
%Inh

>  <UOM>
%

>  <ASSAY VALUE>
33

$$$$
>  <MOLECULE>
Cl.c1ccc(-c2ccc3c(Nc4ccc5[nH]ccc5c4)ccnc3c2)nc1

>  <MEASURED ATTRIBUTE>
%Inh

>  <UOM>
%

>  <ASSAY VALUE>
18

$$$$
>  <MOLECULE>
COc1ccc(CNC(=O)NC2CCN(c3ccnc(Nc4ccc(F)cc4)n3)CC2)cc1

>  <MEASURED ATTRIBUTE>
%Inh

>  <UOM>
%

>  <ASSAY VALUE>
16

$$$$
>  <MOLECULE>
CC(=O)Nc1nc2cnc(Nc3cc(NC(=O)c4cccc(C5(C#N)CC5)c4Cl)ccc3C)nc2s1

>  <MEASURED ATTRIBUTE>
%Inh

>  <UOM>
%

>  <ASSAY VALUE>
10

$$$$
>  <MOLECULE>
CSc1cccc2c(-c3ccncn3)c(-c3ccc(F)cc3)nn12

>  <MEASURED ATTRIBUTE>
%Inh

>  <UOM>
%

>  <ASSAY VALUE>
10

$$$$
>  <MOLECULE>
Cc1ccc(F)c(C(=O)Nc2cccc(-c3nn4ccccc4c3-c3ccnc(Nc4cccc(F)c4)n3)c2)c1F

>  <MEASURED ATTRIBUTE>
%Inh

>  <UOM>
%

>  <ASSAY VALUE>
15

$$$$
